- test-method-notes: Lethal dose of the compound
- Type: ADME
quantity: LD50 (mg/kg)
API: value field is a number in mg/kg; no unit string.

Lookup result for CCCN1CCC(COc2nc3ccccc3c3c2CCCN3)CC1 ; measured LD50: 37.5

---

Catalogue of compounds with associated pKi
- target-or-system: 5-hydroxytryptamine receptor 4 (Cavia porcellus, UniProt O70528)
- Sequence (O70528 whole entry): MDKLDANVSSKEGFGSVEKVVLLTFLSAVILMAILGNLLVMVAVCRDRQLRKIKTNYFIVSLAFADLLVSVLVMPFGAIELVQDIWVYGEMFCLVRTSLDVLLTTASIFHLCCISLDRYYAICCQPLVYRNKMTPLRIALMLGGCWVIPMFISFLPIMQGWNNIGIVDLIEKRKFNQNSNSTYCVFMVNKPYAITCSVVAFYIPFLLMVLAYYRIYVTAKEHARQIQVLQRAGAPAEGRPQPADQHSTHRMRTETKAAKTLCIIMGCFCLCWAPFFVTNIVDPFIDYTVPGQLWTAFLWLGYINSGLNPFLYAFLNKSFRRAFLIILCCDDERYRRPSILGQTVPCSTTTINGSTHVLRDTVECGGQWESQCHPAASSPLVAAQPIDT
Entry type: numeric. Quantity: pKi, the -log10 of concentration in molar units.

Worked set:
INSERT INTO measurements (compound_smiles, quantity, readout_value) VALUES
  ('CCCN1CCC(COc2nc3ccccc3c3c2CCCCN3)CC1', 'pKi', 7.90),
  ('CCCCCN1CCC(COc2nc3ccccc3c3c2CCCN3)CC1', 'pKi', 7.90),
  ('CCN1CCC(COc2nc3ccccc3c3c2CCCCN3)CC1', 'pKi', 7.97),
  ('CN1CCC(COc2nc3ccccc3c3c2CCCN3)CC1', 'pKi', 7.10);

We next turn to a different compound, shown below.
# compound CCCN1CCC(COc2nc3ccccc3c3c2CCCN3)CC1 ; its pKi = 8.54

---

The following compounds are shown together with reported inhibition values.
- target-or-system: 5-hydroxytryptamine receptor 4 (Cavia porcellus)
- test-method-notes: Ability to displace [3H]GR-113808 from 5-hydroxytryptamine 4 receptor at concentration of 10e-6 M in guinea pig

Some solved entries appear below for comparison.
INSERT INTO assay_data (compound_smiles, readout_value) VALUES
  ('CN1CCC(COc2nc3ccccc3c3c2CCCN3)CC1', '100%'),
  ('C=CCN1CCC(COc2nc3ccccc3c3c2CCCN3)CC1', '100%'),
  ('CCN1CCC(COc2nc3ccccc3c3c2CCCN3)CC1', '100%'),
  ('CCCN1CCC(COc2nc3ccccc3c3c2CCCCN3)CC1', '100%'),
  ('CCCCN1CCC(COc2nc3ccccc3c3c2CCCN3)CC1', '100%');

// inhibition lookup, compound = CCCN1CCC(COc2nc3ccc(Cl)cc3c3c2CCCCN3)CC1 , result: 91%

inhibition reading for CCCN1CCC(COc2nc3ccc(Cl)cc3c3c2CCCN3)CC1 : 100%

Per the record, CCN1CCC(COc2nc3ccccc3c3c2CCCCN3)CC1 has inhibition of 100%

// field: inhibition; key: C#CCN1CCC(COc2nc3ccccc3c3c2CCCN3)CC1 ; value = 100%

c1ccc2c3c(c(OCC4CCNCC4)nc2c1)CCCN3 has a reported inhibition of 96%

---

- target-or-system: 5-hydroxytryptamine receptor 2C (Homo sapiens)
- Sequence (P28335 whole entry): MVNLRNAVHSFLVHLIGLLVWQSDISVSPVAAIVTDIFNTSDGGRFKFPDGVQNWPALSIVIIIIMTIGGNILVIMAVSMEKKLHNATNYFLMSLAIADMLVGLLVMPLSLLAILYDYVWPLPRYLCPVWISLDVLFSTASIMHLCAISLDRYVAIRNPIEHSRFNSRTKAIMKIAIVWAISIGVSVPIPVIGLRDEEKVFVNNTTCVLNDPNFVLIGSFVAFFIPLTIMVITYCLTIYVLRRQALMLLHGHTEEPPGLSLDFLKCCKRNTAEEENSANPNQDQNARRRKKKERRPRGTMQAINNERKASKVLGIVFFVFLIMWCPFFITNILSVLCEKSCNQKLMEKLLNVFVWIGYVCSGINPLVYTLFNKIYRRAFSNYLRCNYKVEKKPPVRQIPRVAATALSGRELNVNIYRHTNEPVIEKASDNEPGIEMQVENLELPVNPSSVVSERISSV
quantity: pIC50
Note on units: pIC50 is unitless, being -log10 of a concentration expressed in mol/L.

// field: pIC50; key: CCCN1CCC(COc2nc3ccccc3c3c2CCCN3)CC1 ; value = 5.47

---

- target-or-system: 5-hydroxytryptamine receptor 2B (Homo sapiens)
- Sequence (P41595 whole entry): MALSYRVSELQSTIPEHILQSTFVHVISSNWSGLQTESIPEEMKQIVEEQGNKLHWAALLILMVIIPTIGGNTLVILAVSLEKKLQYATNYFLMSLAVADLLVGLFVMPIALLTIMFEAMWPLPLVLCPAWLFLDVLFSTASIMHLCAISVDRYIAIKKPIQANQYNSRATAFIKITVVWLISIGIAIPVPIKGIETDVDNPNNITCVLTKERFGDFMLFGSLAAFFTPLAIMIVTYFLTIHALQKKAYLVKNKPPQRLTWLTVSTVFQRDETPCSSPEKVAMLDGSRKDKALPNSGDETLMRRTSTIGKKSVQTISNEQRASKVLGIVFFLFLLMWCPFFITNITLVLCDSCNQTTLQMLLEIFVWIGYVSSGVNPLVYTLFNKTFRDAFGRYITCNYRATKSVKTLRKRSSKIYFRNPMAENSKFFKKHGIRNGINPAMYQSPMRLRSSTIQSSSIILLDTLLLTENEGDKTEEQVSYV
quantity: pIC50
The read-out pIC50 is expressed as -log10 of concentration in moles per litre.

Reading of pIC50 for CCCN1CCC(COc2nc3ccccc3c3c2CCCN3)CC1 with 5-hydroxytryptamine receptor 2B (Homo sapiens): 6.70

---

Target chain: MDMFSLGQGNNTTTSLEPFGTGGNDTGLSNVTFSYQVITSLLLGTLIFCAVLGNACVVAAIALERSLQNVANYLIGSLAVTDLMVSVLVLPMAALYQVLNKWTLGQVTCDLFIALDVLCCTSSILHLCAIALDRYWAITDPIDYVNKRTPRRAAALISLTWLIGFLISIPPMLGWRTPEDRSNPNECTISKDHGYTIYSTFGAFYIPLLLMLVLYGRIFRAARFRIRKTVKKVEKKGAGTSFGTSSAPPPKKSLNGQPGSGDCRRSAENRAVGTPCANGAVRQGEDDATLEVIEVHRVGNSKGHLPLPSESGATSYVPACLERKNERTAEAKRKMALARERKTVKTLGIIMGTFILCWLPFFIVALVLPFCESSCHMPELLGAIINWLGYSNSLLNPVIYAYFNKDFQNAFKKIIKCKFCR
quantity: pIC50
Recall that pIC50 is obtained by taking minus log10 of the concentration measured in molar.

Looking up CCCN1CCC(COc2nc3ccccc3c3c2CCCN3)CC1 , I found its pIC50 recorded as 5.04

---

- target-or-system: D(1A) dopamine receptor (Mus musculus)
- Sequence (Q61616 whole entry): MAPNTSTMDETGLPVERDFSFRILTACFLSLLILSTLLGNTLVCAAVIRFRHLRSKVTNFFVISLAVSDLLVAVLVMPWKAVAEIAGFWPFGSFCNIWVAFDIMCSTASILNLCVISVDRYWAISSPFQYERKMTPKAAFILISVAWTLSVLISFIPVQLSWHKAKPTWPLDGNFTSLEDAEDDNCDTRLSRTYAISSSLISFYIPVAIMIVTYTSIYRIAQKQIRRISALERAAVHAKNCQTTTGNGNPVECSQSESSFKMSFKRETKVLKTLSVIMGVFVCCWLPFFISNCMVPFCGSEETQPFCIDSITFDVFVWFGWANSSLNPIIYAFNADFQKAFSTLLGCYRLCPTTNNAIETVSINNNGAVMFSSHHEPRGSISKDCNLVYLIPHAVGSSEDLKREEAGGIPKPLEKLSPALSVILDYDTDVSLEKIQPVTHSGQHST
- test-method-notes: Ability to displace [3H]SCH-23390 from Dopamine receptor D1
quantity: IC50

Query CCCN1CCC(COc2nc3ccccc3c3c2CCCN3)CC1 yields IC50 of > 100 µM

---

- target-or-system: Vasopressin V2 receptor (Sus scrofa)
- Sequence (P32307 whole entry): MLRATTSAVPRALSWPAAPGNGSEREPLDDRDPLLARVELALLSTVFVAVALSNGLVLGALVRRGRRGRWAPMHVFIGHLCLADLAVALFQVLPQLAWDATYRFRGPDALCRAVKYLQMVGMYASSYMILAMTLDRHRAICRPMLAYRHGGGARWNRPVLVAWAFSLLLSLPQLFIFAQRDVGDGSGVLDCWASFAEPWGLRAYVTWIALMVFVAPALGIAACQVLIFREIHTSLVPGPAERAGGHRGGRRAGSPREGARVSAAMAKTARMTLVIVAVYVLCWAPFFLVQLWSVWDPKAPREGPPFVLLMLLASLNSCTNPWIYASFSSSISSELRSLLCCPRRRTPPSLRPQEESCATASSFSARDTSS
quantity: pIC50
As a rule, pIC50 stands for the negative log10 of the concentration, concentration in M.

Lab note: compound CCCN1CCC(COc2nc3ccccc3c3c2CCCN3)CC1 tested on Vasopressin V2 receptor (Sus scrofa); recorded pIC50 was 4.96

---

Target protein (sequence): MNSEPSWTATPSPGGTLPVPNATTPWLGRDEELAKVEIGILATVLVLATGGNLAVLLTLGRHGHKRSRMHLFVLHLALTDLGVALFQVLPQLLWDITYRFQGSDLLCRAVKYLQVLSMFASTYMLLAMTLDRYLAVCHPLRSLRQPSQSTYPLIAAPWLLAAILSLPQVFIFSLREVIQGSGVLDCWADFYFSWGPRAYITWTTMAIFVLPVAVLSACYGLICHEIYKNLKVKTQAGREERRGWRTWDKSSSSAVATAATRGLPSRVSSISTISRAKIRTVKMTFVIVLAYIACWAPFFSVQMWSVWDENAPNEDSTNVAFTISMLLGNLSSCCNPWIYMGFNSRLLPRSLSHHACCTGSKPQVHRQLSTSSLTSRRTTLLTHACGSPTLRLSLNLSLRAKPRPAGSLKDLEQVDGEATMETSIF
quantity: pIC50
Remember the convention: pIC50 equals -log10 of concentration in molar.

In plain terms, CCCN1CCC(COc2nc3ccccc3c3c2CCCN3)CC1 has a documented pIC50 of 5.49

---

- target-or-system: 5-hydroxytryptamine receptor 4 (Mus musculus)
- Sequence (P97288 whole entry): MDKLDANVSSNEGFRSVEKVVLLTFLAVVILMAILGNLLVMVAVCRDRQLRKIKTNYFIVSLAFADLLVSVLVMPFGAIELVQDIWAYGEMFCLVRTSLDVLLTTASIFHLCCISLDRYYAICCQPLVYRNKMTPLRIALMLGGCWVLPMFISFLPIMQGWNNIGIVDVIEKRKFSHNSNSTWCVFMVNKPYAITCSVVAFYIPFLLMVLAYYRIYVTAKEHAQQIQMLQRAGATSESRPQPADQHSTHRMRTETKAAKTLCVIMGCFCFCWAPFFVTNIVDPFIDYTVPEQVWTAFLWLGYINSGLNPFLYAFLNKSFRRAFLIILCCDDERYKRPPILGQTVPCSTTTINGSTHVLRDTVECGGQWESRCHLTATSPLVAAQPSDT
- test-method-notes: Ability to displace [3H]GR-113808 from mouse 5-hydroxytryptamine 4 receptor in COS7 cells
quantity: IC50 (nM)
All answers are understood in nM, so give the number only.

// CCCN1CCC(COc2nc3ccccc3c3c2CCCN3)CC1 : IC50 value = 0.56

---

- target-or-system: UniProt O70528
- test-method-notes: Ability to displace [3H]GR-113808 from 5-hydroxytryptamine 4 receptor at concentration of 10e-8 M in guinea pig
quantity: inhibition (%)
The reply should contain only the number, in %.

Observe how each entry below is paired with its result.
INSERT INTO assay_data (compound_smiles, readout_value) VALUES
  ('CCCCN1CCC(COc2nc3ccccc3c3c2CCCCN3)CC1', 44),
  ('C#CCN1CCC(COc2nc3ccccc3c3c2CCCN3)CC1', 15);

The observed inhibition for CCCCN1CCC(COc2nc3ccccc3c3c2CCCN3)CC1 when tested with UniProt O70528 stands at 77

Reported inhibition (UniProt O70528) for entry C=CCN1CCC(COc2nc3ccccc3c3c2CCCN3)CC1 is 31

---

- target-or-system: 5-hydroxytryptamine receptor 4 (Cavia porcellus) (UniProt O70528)
- test-method-notes: Ability to displace [3H]GR-113808 from 5-hydroxytryptamine 4 receptor at concentration of 10e-6 M in guinea pig
quantity: inhibition (%)
Report only the number, with the unit % understood.

Use these answered entries as a reference point.
INSERT INTO results (compound_smiles, units_symbol, readout_value) VALUES
  ('CCCCN1CCC(COc2nc3ccccc3c3c2CCCCN3)CC1', '%', 100),
  ('CCCCN1CCC(COc2nc3ccc(Cl)cc3c3c2CCCCN3)CC1', '%', 92),
  ('CCCCCN1CCC(COc2nc3ccccc3c3c2CCCN3)CC1', '%', 100);

Value of inhibition reported for the compound CCCN1CCC(COc2nc3cc(Cl)ccc3c3c2CCCCN3)CC1 is 98

Memo: CCCN1CCC(COc2nc3ccccc3c3c2CCCN3)CC1 , reported inhibition: 100

compound CCCCCN1CCC(COc2nc3ccccc3c3c2CCCCN3)CC1 , inhibition observed: 100

Memo: CCCCN1CCC(COc2nc3ccc(Cl)cc3c3c2CCCN3)CC1 , reported inhibition: 100
